# assay_text: Single dose oral pharmacokinetic study in rat
# Format: in vivo
# study_conditions: plasma; Rat oral PK @30 mg/kg (Table 3)
value_type: Cmax (ng/mL)
Hi! Could you send only the number? It should be in ng/mL, unit omitted.

CC(C)(CC(=O)O[C@H]1CC[C@]2(C)[C@H]3CC[C@@H]4[C@H]5[C@H](C6(C)CC6)CC[C@]5(C(=O)N[C@@H]5C[C@H](C(=O)N6CCCCC6)C5(C)C)CC[C@@]4(C)[C@]3(C)CC[C@H]2C1(C)C)C(=O)O
5920
C=C(C)[C@@H]1CC[C@]2(C(=O)N[C@@H]3C[C@H](c4nnc(C)o4)C3(C)C)CC[C@]3(C)[C@H](CC[C@@H]4[C@@]5(C)CC[C@H](OC(=O)CC(C)(C)C(=O)O)C(C)(C)[C@@H]5CC[C@]43C)[C@@H]12
1970

Task item: # get_value(readout='Cmax', item= C=C(C)[C@@H]1CC[C@]2(C(=O)O)CC[C@]3(C)[C@H](CC[C@@H]4[C@@]5(C)CC[C@H](OC(=O)[C@H]6[C@@H](CC(=O)O)C6(C)C)C(C)(C)[C@@H]5CC[C@]43C)[C@@H]12 )
Reply: 1220

Taken from patent US20150119373A1.
